The measurements presented in this section are drawn from patent US8017767B2.

Give measured Days to pH Failure for each item. Keep answers brief.
- PROTOCOL DESCRIPTION: Accelerated stability test (50° C.) with pH stability test of sucralose sample solution
- Assay type: physicochemical
- ASSAY CONTEXT: 50° C., WHIRLPAK polyethylene bags; failure = pH drop ≧1.0; Example 2, pH at crystallizer varied
Give bare numbers, in Days.

Illustrative cases are given below, each with its answer.
COMPOUND: OC[C@H]1O[C@H](O[C@]2(CCl)O[C@H](CCl)[C@@H](O)[C@@H]2O)[C@H](O)[C@@H](O)[C@H]1Cl [Sample 38]
VALUE: 6

COMPOUND: OC[C@H]1O[C@H](O[C@]2(CCl)O[C@H](CCl)[C@@H](O)[C@@H]2O)[C@H](O)[C@@H](O)[C@H]1Cl [Sample 44]
VALUE: 6

COMPOUND: OC[C@H]1O[C@H](O[C@]2(CCl)O[C@H](CCl)[C@@H](O)[C@@H]2O)[C@H](O)[C@@H](O)[C@H]1Cl [Sample 39]
VALUE: 7

COMPOUND: OC[C@H]1O[C@H](O[C@]2(CCl)O[C@H](CCl)[C@@H](O)[C@@H]2O)[C@H](O)[C@@H](O)[C@H]1Cl [Sample 40]
VALUE: 7

COMPOUND: OC[C@H]1O[C@H](O[C@]2(CCl)O[C@H](CCl)[C@@H](O)[C@@H]2O)[C@H](O)[C@@H](O)[C@H]1Cl [Sample 43]
VALUE: 5

# get_value(readout='Days to pH Failure', item= OC[C@H]1O[C@H](O[C@]2(CCl)O[C@H](CCl)[C@@H](O)[C@@H]2O)[C@H](O)[C@@H](O)[C@H]1Cl [Sample 34] )
3
